Assignment: determine reported sensor-assay potency score (higher = more potent) for the given sequences.
- TARGET: SMAD4
- EXPERIMENT_NOTES: pooled miR-30 sensor sort-seq; sequence = guide strand; further: reference of the scale not given here
- ASSAY_CONDITIONS: shRNA
The answer should be a number; do not append a unit.

*Q* Find the measured sensor-assay potency score (higher = more potent) of "TTCCAGGTGATACAACTCGTTC" and report it.
*A* -1.63

*Q* Find the measured sensor-assay potency score (higher = more potent) of "TAGAATGATATACATATCGATG" and report it.
*A* -1.35

*Q* Find the measured sensor-assay potency score (higher = more potent) of "TAACTCTGTACAAAGACCGCGT" and report it.
*A* 0.679

*Q* Find the measured sensor-assay potency score (higher = more potent) of "TTAACTTTGAGAACTTCTCTGC" and report it.
*A* 0.783

*Q* Find the measured sensor-assay potency score (higher = more potent) of "TACATTCCAACTGCACACCTTT" and report it.
*A* -0.752

*Q* Find the measured sensor-assay potency score (higher = more potent) of "TTACAATACATTATTAACTTAC" and report it.
*A* -0.987

====

- TARGET: MTMR14
- EXPERIMENT_NOTES: pooled miR-30 sensor sort-seq; sequence = guide strand
- ASSAY_CONDITIONS: shRNA
Assignment: determine reported sensor-assay potency score (higher = more potent) for the given sequences.

*Q* Find the measured sensor-assay potency score (higher = more potent) of "TGAGATACAGTGTACCAGCAGC" and report it.
*A* -0.892

*Q* Find the measured sensor-assay potency score (higher = more potent) of "TTTGCTGAGCCGATCTACCAAC" and report it.
*A* -1.14

*Q* Find the measured sensor-assay potency score (higher = more potent) of "TCGAAGAGCACAGTCCTCCTCC" and report it.
*A* -0.118

*Q* Find the measured sensor-assay potency score (higher = more potent) of "TTGTCCACCTTCTCAGAGGAGG" and report it.
*A* -1.29

*Q* Find the measured sensor-assay potency score (higher = more potent) of "TTGAACAGGATTACTGGGCAGA" and report it.
*A* -0.111

*Q* Find the measured sensor-assay potency score (higher = more potent) of "TTATTTTGTGATCTGTGTCAAA" and report it.
*A* -0.837

*Q* Find the measured sensor-assay potency score (higher = more potent) of "TGACAGGTATCGAAGCAGCTTG" and report it.
*A* -1.11

*Q* Find the measured sensor-assay potency score (higher = more potent) of "TTCGTGTTTGGAATCACGCTGA" and report it.
*A* 0.52

*Q* Find the measured sensor-assay potency score (higher = more potent) of "TATTTGACTGACAGGTATCGAA" and report it.
*A* -0.898

*Q* Find the measured sensor-assay potency score (higher = more potent) of "TGAAACAGTAGTCTCGGCCAAA" and report it.
*A* -1.3

====

Assignment: determine reported sensor-assay potency score (higher = more potent) for the given sequences.
- TARGET: LRCH2
- EXPERIMENT_NOTES: pooled miR-30 sensor sort-seq; sequence = guide strand
- ASSAY_CONDITIONS: shRNA
The answer should be a number; do not append a unit.

*Q* Find the measured sensor-assay potency score (higher = more potent) of "TTGTTCATCTATTTGATCCTTC" and report it.
*A* 0.648

*Q* Find the measured sensor-assay potency score (higher = more potent) of "TTAAACATATCTGTGCTGGTGG" and report it.
*A* 0.402

*Q* Find the measured sensor-assay potency score (higher = more potent) of "TTGCAATGGATTGTTATCCAAA" and report it.
*A* -1.31

*Q* Find the measured sensor-assay potency score (higher = more potent) of "TTTATTACAAGAGAAATCCAGC" and report it.
*A* -0.214

*Q* Find the measured sensor-assay potency score (higher = more potent) of "TTCATTGCCACTTGAACTCTTC" and report it.
*A* 0.503

*Q* Find the measured sensor-assay potency score (higher = more potent) of "TTTATTATTACTGACGACCAAA" and report it.
*A* -1.09

*Q* Find the measured sensor-assay potency score (higher = more potent) of "TACTTGTAAATGATGCAGCTTT" and report it.
*A* 0.0854

*Q* Find the measured sensor-assay potency score (higher = more potent) of "TTCTTCTCATTGTAAATCCTGG" and report it.
*A* -0.64
